Target: T1, full-length human SIRPαV2 (CAA71403.1) on cells (human, UniProt P78324 31-504)
T1 construct: one molecule for CHO-K1 and Expi-CHO transfectants (CAA71403.1) and for endogenous V2 on THP-1 cells and on CD14+ monocytes of V2/V2 donors; also called CHO-hSIRPαV2; αV2 WT
T1 sequence (P78324 other isoform, or with tags, fused parts or gaps): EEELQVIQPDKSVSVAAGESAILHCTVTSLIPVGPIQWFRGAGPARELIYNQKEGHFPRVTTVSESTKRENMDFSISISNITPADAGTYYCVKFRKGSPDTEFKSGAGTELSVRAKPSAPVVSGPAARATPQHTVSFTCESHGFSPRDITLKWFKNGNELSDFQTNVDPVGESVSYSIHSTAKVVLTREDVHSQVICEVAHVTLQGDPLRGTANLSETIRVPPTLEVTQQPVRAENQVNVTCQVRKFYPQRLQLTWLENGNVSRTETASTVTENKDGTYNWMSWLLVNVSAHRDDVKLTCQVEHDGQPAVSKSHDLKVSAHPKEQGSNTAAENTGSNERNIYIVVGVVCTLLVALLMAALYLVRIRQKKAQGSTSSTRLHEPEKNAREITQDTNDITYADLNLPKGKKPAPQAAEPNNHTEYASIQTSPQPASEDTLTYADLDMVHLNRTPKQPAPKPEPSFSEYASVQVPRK
Experiment: flow cytometry, CHO-K1 cells
Method: Antibody binding to cells expressing SIRPα is evaluated by flow cytometry. […] Cells are washed, fixed, and analyzed by flow cytometry. Median fluorescent intensity is determined and used as a measure of antibody binding.
QUANTITY_NAME: EC50 (nM)
One number for each entry, in nM.

## Input Would you kindly share the measured EC50 for Antibody D (antibody, human IgG1, kappa, L234A L235A, V domains shown) VH: EVQLVESGGGLVQPGGSLRLSCAASGFTFSSFDMHWVRQPTGKGLEWVSTIGIAGDTYFPGSVKGRFTISRENAKNSLYLQMNSLRAGDTAVYYCARGGNWDDALDIWGQGTMVTVSS VL: DIQMTQSPSSLSASVGDRVTITCRASQDINNYLAWFQQKPGKAPKSLIYTASSLQSGVPSKFSGSGSGTDFTLTISSLQPEDFATYYCQQYNTYPYTFGQGTKLEIKR ?
## Output 0.5
